# test.method.notes: Pharmacokinetic test of mice, intragastric (Test Example 5)
# Assay type: in vivo
# recorded.conditions: mouse; ICR mice, PO, 5 mg/kg, plasma; read-out: Peak time Tmax
# Source text: ICR mice were used as test animals, and LC/MS/MS methods was used to determine the drug concentrations at different moments in plasma of mice administered by intragastric injectiion with the compound 27 of the present invention, and to study the pharmacokinetic characteristics of the compound of the present invention in mice. […]
assay.endpoint: Tmax
Mention the unit after the number when you answer.

Tell me Tmax reported for NC(=O)c1nc(N2CCC(N)(c3ccccc3)CC2)nc2[nH]nc(-c3ccnc(Cl)c3Cl)c12 [Example 27]
8 h

* * *

# test.method.notes: Pharmacokinetic test in ICR mice, intragastric (Test Example 4)
# Assay type: in vivo
# recorded.conditions: mouse, PO, 10 mg/kg per table (method text says 1 mg/kg), plasma, read-out: Blood concentration Cmax
assay.endpoint: Cmax (µg/mL)
Note: unit µg/mL is implicit; provide only the numeric part.

1. NC(=O)c1nc(N2CCC3(CC2)Cc2ccccc2[C@H]3N)nc2[nH]nc(-c3cccc(Cl)c3Cl)c12 = 2.11

Let's switch to this compound now.
Identify the reported Cmax for the following entry. NC(=O)c1nc(N2CCC(N)(c3ccccc3)CC2)nc2[nH]nc(-c3cccc(Cl)c3Cl)c12
1.19

* * *

# experimental.target: recombinant human full-length SHP2 (Homo sapiens (Human))
# Sequence (Q06124 whole entry): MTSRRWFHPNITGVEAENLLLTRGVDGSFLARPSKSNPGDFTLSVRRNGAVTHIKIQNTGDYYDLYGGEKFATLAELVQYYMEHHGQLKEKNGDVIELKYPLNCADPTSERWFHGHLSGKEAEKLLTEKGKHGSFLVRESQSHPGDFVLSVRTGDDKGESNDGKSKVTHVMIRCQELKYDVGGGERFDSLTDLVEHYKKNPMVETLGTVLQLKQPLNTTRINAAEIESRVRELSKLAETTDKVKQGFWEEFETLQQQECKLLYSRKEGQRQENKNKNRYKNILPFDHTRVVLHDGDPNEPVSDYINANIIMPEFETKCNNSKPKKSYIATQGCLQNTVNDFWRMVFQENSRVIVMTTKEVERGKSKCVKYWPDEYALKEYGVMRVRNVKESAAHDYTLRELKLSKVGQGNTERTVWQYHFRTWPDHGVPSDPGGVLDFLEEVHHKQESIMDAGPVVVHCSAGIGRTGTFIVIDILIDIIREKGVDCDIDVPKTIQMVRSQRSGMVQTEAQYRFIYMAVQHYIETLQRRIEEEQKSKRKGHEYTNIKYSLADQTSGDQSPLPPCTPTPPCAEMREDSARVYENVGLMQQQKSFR
# test.method.notes: Allosteric inhibition of full-length SHP2 enzyme (DiFMUP fluorescence)
# recorded.conditions: full-length SHP2 0.5 nM, activating peptide 0.5 uM, DiFMUP substrate
assay.endpoint: IC50 (nM)
Give a bare numeral; the unit nM is implied.

1) NC1(c2ccccc2Cl)CCN(c2nc(C(=O)O)c3c(-c4cccc(Cl)c4Cl)n[nH]c3n2)CC1 = 2

Fill in: IC50 on recombinant human full-length SHP2 (Homo sapiens (Human)), entry CC1(N)CCN(c2nc(C(N)=O)c3c(-c4cccc(Cl)c4Cl)n[nH]c3n2)CC1
29

Provide IC50, recorded with recombinant human full-length SHP2 (Homo sapiens (Human)), of COc1nccc(-c2n[nH]c3nc(N4CCC(N)(c5ccccc5F)CC4)nc(C(N)=O)c23)c1Cl
10
